# Tested on: mir-21 pri-miRNA
# Test Method Notes: mir-21 pri-miRNA expression in HeLa cells (real-time RT-PCR)
# Type: cell-based, human
# Particulars: HeLa cells, 100 nM, real-time RT-PCR
In the oligonucleotide strings, read from the 5' end, every base follows the letter of its sugar. An asterisk marks phosphorothioate; unmarked linkages are phosphodiester. Other units and linkages are bracketed, terminal groups are in braces. A string of capitals states the bases alone. e = 2'-O-(2-methoxyethyl) (MOE); [5mC] = 5-methylcytosine; d = 2'-deoxy (DNA)
Consider the following substances; for each one, report its mir-21 pri-miRNA expression % UTC.
One number for each entry, in % UTC.

Please review the entries below; each comes with its answer.
Substance: 358777 (antisense e[5mC]*e[5mC]*eA*eA*eA*eA*eT*eG*eT*e[5mC]*eA*eG*eA*e[5mC]*eA*eG*e[5mC]*e[5mC]*e[5mC]*eA) [compound 358777]
Result Type: mir-21 pri-miRNA expression % UTC
Observed Measurement: 536
//
Substance: 358766 (eG*eG*eT*eA*eG*eG*e[5mC]*eA*eA*eA*eA*e[5mC]*eA*eA*eG*e[5mC]*eA*eG*eA*e[5mC]; antisense) [compound 358766]
Result Type: mir-21 pri-miRNA expression % UTC
Observed Measurement: 142
//
Substance: 358771 (e[5mC]*eA*eA*e[5mC]*eA*eG*eT*e[5mC]*eA*eA*e[5mC]*eA*eT*e[5mC]*eA*eG*eT*e[5mC]*eT*eG; antisense) [compound 358771]
Result Type: mir-21 pri-miRNA expression % UTC
Observed Measurement: 181
//
Substance: 345382 (TCAACATCAGTCTGATAAGCTA; sugars from the 5' end e5 d10 e7, all phosphorothioate, methylation of C not given here) [compound 345382]
Result Type: mir-21 pri-miRNA expression % UTC
Observed Measurement: 119
//
Substance: 358768 (eA*eG*eG*eT*eG*eG*eT*eA*e[5mC]*eA*eG*e[5mC]*e[5mC]*eA*eT*eG*eG*eA*eG*eA) [compound 358768]
Result Type: mir-21 pri-miRNA expression % UTC
Observed Measurement: 987
//
Substance: 358779 (antisense eG*eG*eT*e[5mC]*eA*eG*eA*eT*eG*eA*eA*eA*eG*eA*eT*eA*e[5mC]*e[5mC]*eA*eA) [compound 358779]
Result Type: mir-21 pri-miRNA expression % UTC
Observed Measurement: 646
//
Substance: 358774 (antisense e[5mC]*eA*eT*e[5mC]*eG*eA*e[5mC]*eT*eG*eG*eT*eG*eT*eT*eG*e[5mC]*e[5mC]*eA*eT*eG) [compound 358774]
Result Type: mir-21 pri-miRNA expression % UTC
Observed Measurement: 104
//
Substance: 358765 (eA*e[5mC]*eA*eA*eG*e[5mC]*eA*eG*eA*e[5mC]*eA*eG*eT*e[5mC]*eA*eG*eG*e[5mC]*eA*eG; antisense) [compound 358765]
Result Type: mir-21 pri-miRNA expression % UTC
Observed Measurement: 133

# ---- query substance ----
Measured mir-21 pri-miRNA expression % UTC, 358769 (eG*eA*eT*eA*eA*eG*e[5mC]*eT*eA*e[5mC]*e[5mC]*e[5mC]*eG*eA*e[5mC]*eA*eA*eG*eG*eT; antisense) [compound 358769] : 265
